The entries below come with measured pIC50 values attached.
# TARGET_OF_ASSAY: UniProtKB P07949
# PROTOCOL: Protein based RET kinase assay with purified recombinant GST-RET
# Assay type: biochemical
# CONDITION_PARAMETERS: purified protein assay; read-out: IC50
# Sequence (P07949 29-1114): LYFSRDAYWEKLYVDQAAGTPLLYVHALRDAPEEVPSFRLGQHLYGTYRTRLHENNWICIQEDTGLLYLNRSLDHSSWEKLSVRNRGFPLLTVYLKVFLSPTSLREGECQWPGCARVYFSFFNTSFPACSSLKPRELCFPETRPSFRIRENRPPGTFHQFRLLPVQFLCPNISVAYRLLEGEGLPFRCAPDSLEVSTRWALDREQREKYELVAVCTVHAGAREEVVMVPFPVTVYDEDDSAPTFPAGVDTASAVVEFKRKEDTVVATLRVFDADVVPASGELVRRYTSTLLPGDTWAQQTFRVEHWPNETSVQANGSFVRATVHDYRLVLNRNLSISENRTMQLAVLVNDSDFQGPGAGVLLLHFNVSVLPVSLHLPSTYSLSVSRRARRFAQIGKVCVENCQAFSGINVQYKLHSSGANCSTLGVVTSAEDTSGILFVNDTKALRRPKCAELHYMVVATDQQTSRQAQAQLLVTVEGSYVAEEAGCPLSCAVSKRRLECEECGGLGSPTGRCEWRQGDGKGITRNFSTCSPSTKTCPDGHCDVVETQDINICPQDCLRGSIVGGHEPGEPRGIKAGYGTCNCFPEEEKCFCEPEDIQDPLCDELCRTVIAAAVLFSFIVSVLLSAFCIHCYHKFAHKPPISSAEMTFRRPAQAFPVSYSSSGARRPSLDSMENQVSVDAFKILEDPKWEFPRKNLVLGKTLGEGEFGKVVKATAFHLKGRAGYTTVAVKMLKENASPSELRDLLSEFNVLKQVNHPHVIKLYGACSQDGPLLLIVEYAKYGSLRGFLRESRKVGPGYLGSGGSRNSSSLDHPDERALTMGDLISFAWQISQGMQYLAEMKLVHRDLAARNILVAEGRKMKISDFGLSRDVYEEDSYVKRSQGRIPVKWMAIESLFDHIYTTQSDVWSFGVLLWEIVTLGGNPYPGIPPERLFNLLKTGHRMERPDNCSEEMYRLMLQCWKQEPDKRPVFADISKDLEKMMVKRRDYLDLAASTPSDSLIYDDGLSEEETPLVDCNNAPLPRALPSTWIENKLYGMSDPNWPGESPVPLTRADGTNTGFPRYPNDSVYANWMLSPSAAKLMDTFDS
Expect pIC50 as a plain number equal to -log10 of the molar concentration.

Take a look at these entries with their results.
>>> print(df.to_string())
                                   molecule  recorded_measurement
0    CN(C)CCOC1c2ccccc2C=Cc2ccccc21 [SW-13]                  5.60
1  CNCCC=C1c2ccccc2CCc2ccccc21 [SW-04, Nortriptyline]                  5.82
2  CCN(CC)CCCOC(=O)CC1c2ccccc2C=Cc2ccccc21 [SW-12]                  5.40
3  CN(C)CCC=C1c2ccccc2C=Cc2ccccc21.Cl [SW-01, Cyclobenzaprine Hydrochloride]                  6.52
4  C[N+](C)([O-])CCC=C1c2ccccc2CCc2ccccc21.Cl [SW-03, hydrochloride]                  5.00
5           NCC1c2ccccc2CCc2ccccc21 [SW-08]                  5.30

(Q) Endpoint output: pIC50 of CN(C)CCC=C1c2ccccc2CCc2ccccc21 [SW-05, Amitriptyline] . Value?
(A) 6.00

----------
# TARGET_OF_ASSAY: UniProt P07949
# PROTOCOL: RET autophosphorylation (pY905 Western blot) in HEK293 cells stably expressing RET
# Format: cell-based
# Sequence (P07949 29-1114 limits assumed): as the sequence (P07949 29-1114) above
The entries below come with measured pEC50 values attached.
Expect pEC50 as a plain number equal to -log10 of the molar concentration.

Take a look at these entries with their results.
>>> df
                smiles_notation  recorded_measurement
0  CNCCC=C1c2ccccc2C=Cc2ccccc21                  6.00
1       NCC1c2ccccc2CCc2ccccc21                  4.70

(Q) Endpoint output: pEC50 of `CN(C)CCC=C1c2ccccc2CCc2ccccc21` . Value?
(A) 5.30

----------
# TARGET_OF_ASSAY: RET (Homo sapiens (Human))
# PROTOCOL: RET autophosphorylation (pY905 Western blot) in HEK293 cells stably expressing RET
# Format: cell-based
# CONDITION_PARAMETERS: EC50, cell based assay
The entries below come with measured pEC50 values attached.
Expect pEC50 as a plain number equal to -log10 of the molar concentration.

                                   molecule             target_of_assay  recorded_measurement
0  CN(C)CCC=C1c2ccccc2C=Cc2ccccc21.Cl [SW-01, Cyclobenzaprine Hydrochloride]  RET (Homo sapiens (Human))                  6.00

(Q) Endpoint output: pEC50 of `CNCCC=C1c2ccccc2CCc2ccccc21` . Value?
(A) 5.00

----------
# TARGET_OF_ASSAY: RET (Homo sapiens (Human), UniProt P07949)
# PROTOCOL: RET autophosphorylation (pY905 Western blot) in HEK293 cells stably expressing RET
# Format: cell-based
# CONDITION_PARAMETERS: cell based assay; read-out: EC50
Counter-ions that a name gives are not always drawn.
MEASURED_METRIC: EC50

Take a look at these entries with their results.
>>> print(df.to_string())
                                   molecule  measured_metric  recorded_measurement
0            NCCCC1(CCCN)c2ccccc2-c2ccccc21             EC50               > 20 µM
1         CN(C)CCCC1(O)c2ccccc2C=Cc2ccccc21             EC50               > 20 µM
2            CN(C)CCOC1c2ccccc2C=Cc2ccccc21             EC50                  7 µM
3  CN(C)CCNC1c2ccccc2-c2ccccc21 [SW-09, dihydrochloride]             EC50               > 20 µM
4       CN(C)CCC=C1c2ccccc2C(C)(C)c2ccccc21             EC50               > 20 µM

(Q) Endpoint output: EC50 of `CN(CCCN1c2ccccc2CCc2ccccc21)CC(=O)c1ccc(Cl)cc1` . Value?
(A) > 20 µM
